target: mGluR5 receptor (Sus scrofa, UniProt I3LUI7)
Sequence (I3LUI7 19-1212): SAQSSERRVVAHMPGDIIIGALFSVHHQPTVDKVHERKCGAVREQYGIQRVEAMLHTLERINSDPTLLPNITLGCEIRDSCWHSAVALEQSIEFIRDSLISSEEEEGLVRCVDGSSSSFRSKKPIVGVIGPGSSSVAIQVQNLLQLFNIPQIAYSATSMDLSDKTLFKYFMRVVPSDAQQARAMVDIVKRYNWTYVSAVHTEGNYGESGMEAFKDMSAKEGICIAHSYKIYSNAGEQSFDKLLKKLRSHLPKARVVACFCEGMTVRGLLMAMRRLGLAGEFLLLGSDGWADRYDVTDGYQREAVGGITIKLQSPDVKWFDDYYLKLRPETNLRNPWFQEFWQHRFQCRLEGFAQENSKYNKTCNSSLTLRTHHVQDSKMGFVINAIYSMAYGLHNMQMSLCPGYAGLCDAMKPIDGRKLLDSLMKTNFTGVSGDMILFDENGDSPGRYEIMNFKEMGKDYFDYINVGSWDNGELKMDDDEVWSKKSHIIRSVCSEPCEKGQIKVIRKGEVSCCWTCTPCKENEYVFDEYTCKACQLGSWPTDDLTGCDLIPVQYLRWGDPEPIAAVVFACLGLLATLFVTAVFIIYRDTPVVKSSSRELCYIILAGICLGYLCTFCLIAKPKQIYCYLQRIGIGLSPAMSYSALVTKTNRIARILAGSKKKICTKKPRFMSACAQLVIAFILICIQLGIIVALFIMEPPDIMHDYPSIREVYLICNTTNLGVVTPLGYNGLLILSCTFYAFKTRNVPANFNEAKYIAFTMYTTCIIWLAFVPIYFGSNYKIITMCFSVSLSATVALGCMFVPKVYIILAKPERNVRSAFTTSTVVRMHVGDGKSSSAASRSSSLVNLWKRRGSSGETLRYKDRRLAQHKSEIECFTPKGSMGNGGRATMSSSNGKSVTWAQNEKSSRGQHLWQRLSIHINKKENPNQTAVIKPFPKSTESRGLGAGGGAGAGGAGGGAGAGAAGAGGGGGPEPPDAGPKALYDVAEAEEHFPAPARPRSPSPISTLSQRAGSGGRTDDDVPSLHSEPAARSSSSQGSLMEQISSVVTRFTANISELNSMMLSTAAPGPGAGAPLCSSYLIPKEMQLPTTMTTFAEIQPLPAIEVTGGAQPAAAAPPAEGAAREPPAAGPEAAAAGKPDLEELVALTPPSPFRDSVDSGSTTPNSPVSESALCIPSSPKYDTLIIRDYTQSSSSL
Counter-ions that a name gives are not always drawn.
# note: exactly 600 nM is not below, so it is NO; use YES for IC50 strictly under it

C(#Cc1ccc(-c2nc3cnccn3c2N2CCCC2)s1)c1ccccc1 [Example 99, hydrochloride] ... YES

Lab note: IC50 threshold 600 nM. Does this molecule come in strictly under it? CC(C)(C)Nc1c(-c2ccc(C#Cc3ccsc3)s2)nc2ccccn12 [Example 350, hydrochloride]
YES

Subsequent entry: CC(C)(C)Nc1c(-c2ccc(C#Cc3ccccn3)s2)nc2cnccn12.Cl [Example 91, hydrochloride]
YES

Subsequent entry: CC(C)Nc1c(-c2ccc(C#Cc3ccccc3)s2)nc2cnccn12
YES

Subsequent entry: CCCCCNc1c(-c2ccc(C#Cc3ccccc3)s2)nc2cnccn12
NO
